Molecular target: Human recombinant enteropeptidase (Homo sapiens)
Construct: purchased ITSI-Biosciences LLC #REN-260
Sequence (P98073 whole entry): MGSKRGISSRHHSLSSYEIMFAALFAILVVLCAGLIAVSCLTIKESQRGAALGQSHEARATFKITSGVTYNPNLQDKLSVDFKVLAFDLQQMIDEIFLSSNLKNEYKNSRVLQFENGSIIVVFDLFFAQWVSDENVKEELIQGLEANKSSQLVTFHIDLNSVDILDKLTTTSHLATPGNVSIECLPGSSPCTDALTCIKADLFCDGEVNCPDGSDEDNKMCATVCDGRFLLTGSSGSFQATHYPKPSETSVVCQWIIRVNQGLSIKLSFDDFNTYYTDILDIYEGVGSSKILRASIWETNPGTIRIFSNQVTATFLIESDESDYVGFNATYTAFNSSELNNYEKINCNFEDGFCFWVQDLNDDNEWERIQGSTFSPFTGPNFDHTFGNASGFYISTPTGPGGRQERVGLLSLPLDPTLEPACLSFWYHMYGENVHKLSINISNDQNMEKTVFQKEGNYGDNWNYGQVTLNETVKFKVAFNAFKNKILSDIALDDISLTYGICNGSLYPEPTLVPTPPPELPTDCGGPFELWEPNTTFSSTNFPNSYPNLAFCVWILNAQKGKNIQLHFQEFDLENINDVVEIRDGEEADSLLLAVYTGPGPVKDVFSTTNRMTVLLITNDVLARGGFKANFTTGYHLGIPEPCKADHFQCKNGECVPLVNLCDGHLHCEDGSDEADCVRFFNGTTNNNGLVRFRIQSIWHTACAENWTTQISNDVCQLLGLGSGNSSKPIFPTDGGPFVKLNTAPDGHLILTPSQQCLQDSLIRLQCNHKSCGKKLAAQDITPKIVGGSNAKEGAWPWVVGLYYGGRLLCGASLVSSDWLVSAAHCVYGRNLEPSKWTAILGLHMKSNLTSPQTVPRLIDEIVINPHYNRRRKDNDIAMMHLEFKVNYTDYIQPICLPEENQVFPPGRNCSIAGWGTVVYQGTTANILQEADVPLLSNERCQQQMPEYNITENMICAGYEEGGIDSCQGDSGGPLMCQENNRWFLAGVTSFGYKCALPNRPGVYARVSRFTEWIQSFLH
Assay: Human enteropeptidase inhibitory activity (Test Example 1)
Type: biochemical
Settings: 3.3 μM test compound; inhibition rate from fluorescence intensity at 2 hours after the start of the reaction; read-out: 3.3 μM Inhibition
Counter-ions that a name gives are not always drawn.
property.measured: inhibition at 3.3 µM (%)

N=C(N)Nc1ccc2c(c1)CCCOc1c(ccc(CCC(=O)NC(CC(=O)O)CC(=O)O)c1C(=O)N[C@@H](Cc1ccc(O)cc1)C(=O)O)OC2=O [Example 123] | 101
N=C(N)Nc1ccc2c(c1)CCCOc1c(ccc(CCC(=O)O)c1C(=O)O)OC2=O [Example 111] | 100
N=C(N)Nc1ccc2c(c1)CCCOc1c(cccc1C(=O)N[C@@H](Cc1ccccc1)C(=O)O)OC2=O [Example 87] | 101
N=C(N)c1ccc2c(c1)CCc1c(C(=O)N[C@@H](CC(=O)O)C(=O)O)cccc1C(=O)O2 [Example 62, trifluoroacetate] | 84
N=C(N)Nc1ccc2c(c1)CCCOc1c(cccc1C(=O)N(CC(=O)O)CC(=O)N(CC(=O)O)CC(=O)O)OC2=O [Example 115] | 99
N=C(N)Nc1ccc2c(c1)CCCOc1c(cccc1C(=O)N(CCC(=O)O)[C@@H](CC(=O)O)C(=O)O)OC2=O [Example 138] | 100
N=C(N)Nc1ccc2c(c1)CCCOc1c(cccc1C1=NOC(CC(=O)O)(C(=O)O)C1)OC2=O (stereo not shown) [Example 23] | 102
CN(CC(=O)N[C@@H](CC(=O)O)C(=O)O)C(=O)c1cccc2c1OCCCc1cc(NC(=N)N)ccc1C(=O)O2 [Example 103] | 101
N=C(N)Nc1ccc2c(c1)CCCOc1c(cccc1C(=O)N(CC(=O)O)C(CC(=O)O)CC(=O)O)OC2=O [Example 106] | 100
N=C(N)Nc1ccc2c(c1)CCCOc1c(cccc1C(=O)N(CCC(=O)O)CC(=O)O)OC2=O [Example 64] | 101

----------
Target: Human recombinant enteropeptidase (Homo sapiens)
Construct: purchased ITSI-Biosciences LLC #REN-260
Assay: Human enteropeptidase inhibitory activity (Test Example 1)
Assay type: biochemical
Conditions: 3.3 μM test compound; inhibition rate from fluorescence intensity at 2 hours after the start of the reaction; read-out: 3.3 μM Inhibition
property.measured: inhibition at 3.3 µM (%)

N=C(N)Nc1ccc2c(c1)CCCCc1c(cccc1C(=O)NC(CC(=O)O)CC(=O)O)OC2=O | 101
N=C(N)Nc1ccc2c(c1)CCCOc1c(cccc1C(=O)N[C@@H](CCC(N)=O)C(=O)O)OC2=O | 101
N=C(N)Nc1ccc2c(c1)CCCOc1c(cccc1C(=O)N(CC(=O)O)[C@@H](CC(=O)O)C(=O)O)OC2=O | 100
N=C(N)Nc1ccc2c(c1)CCCOc1c(cccc1C1=NO[C@@](CC(=O)O)(C(=O)O)C1)OC2=O (stereo in doubt) | 101
N=C(N)Nc1ccc2c(c1)CCCOc1c(ccc(CCC(=O)O)c1C(=O)N[C@@H](Cc1ccc(O)cc1)C(=O)O)OC2=O | 99
N=C(N)Nc1ccc2c(c1)CCCOc1c(cccc1C(=O)N(CC(=O)O)CC(=O)N(CC(=O)O)Cc1cccc(C(=O)O)c1)OC2=O | 100
N=C(N)Nc1ccc2c(c1)CCCOc1c(cccc1C(=O)N[C@@H](Cc1ccc(O)cc1)C(=O)O)OC2=O | 101
N=C(N)Nc1ccc2c(c1)CCCOc1c(cccc1C(=O)N(CCOCc1ccccc1)C(CC(=O)O)C(=O)O)OC2=O (stereo not shown) | 100
N=C(N)Nc1ccc2c(c1)CCCOc1c(ccc(CCC(=O)O)c1C(=O)N(CC(=O)O)CC(=O)O)OC2=O | 101
N=C(N)Nc1ccc2c(c1)CCCCc1c(OCC(=O)N[C@@H](CC(=O)O)C(=O)O)cccc1OC2=O | 101
CN(C(=O)c1c(CCC(=O)O)ccc2c1OCCCc1cc(NC(=N)N)ccc1C(=O)O2)[C@@H](CC(=O)O)C(=O)O | 101
N=C(N)Nc1ccc2c(c1)CCCOc1c(cccc1C(=O)Nc1ccc(S(=O)(=O)O)cc1)OC2=O | 101
N=C(N)Nc1ccc2c(c1)CCCOc1c(cccc1C(=O)N[C@H](CC(=O)O)C(=O)O)OC2=O | 101
N=C(N)Nc1ccc2c(c1)OCCOc1cc(CCC(=O)N[C@@H](CC(=O)O)C(=O)O)ccc1OC2=O | 101
N=C(N)Nc1ccc2c(c1)CCCOc1c(ccc(CCC(=O)N(CC(=O)O)CC(=O)O)c1C(=O)N[C@@H](Cc1ccc(O)cc1)C(=O)O)OC2=O | 101
N=C(N)Nc1ccc2c(c1)CCCCc1c(CCC(=O)N[C@@H](CC(=O)O)C(=O)O)cccc1OC2=O | 102
N=C(N)Nc1ccc2c(c1)CCCCc1cc3c(cc1OC2=O)OC[C@H]3CC(=O)NCCS(=O)(=O)O | 90
N=C(N)Nc1ccc2c(c1)CCCOc1c(CCC(=O)N[C@@H](CCC(=O)O)C(=O)O)cccc1OC2=O | 100
N=C(N)NCCC[C@H](NC(=O)c1cccc2c1OCCCc1cc(NC(=N)N)ccc1C(=O)O2)C(=O)O | 100
N=C(N)Nc1ccc2c(c1)CCCOc1c(cccc1C(=O)N(CC(=O)O)[C@@H](CC(N)=O)C(=O)O)OC2=O | 100
N=C(N)Nc1ccc2c(c1)CCCOc1c(cccc1C(=O)N(CC(=O)O)Cc1ccc(CC(=O)O)cc1)OC2=O | 98
N=C(N)Nc1ccc2c(c1)CCCOc1c(cccc1C(=O)N(Cc1ccc(C(=O)O)cc1)C(CC(=O)O)CC(=O)O)OC2=O | 100
N=C(N)Nc1ccc2c(c1)CCCOc1c(cccc1C(=O)NCS(=O)(=O)O)OC2=O | 102
N=C(N)Nc1ccc2c(c1)CCCOc1c(cccc1C(=O)N(CC(=O)O)[C@@H](Cc1ccc(O)cc1)C(=O)O)OC2=O | 101
N=C(N)Nc1ccc2c(c1)CCCc1cc(C(=O)N[C@@H](CC(=O)O)C(=O)O)ccc1OC2=O | 100
N=C(N)Nc1ccc2c(c1)CCCOc1c(cccc1C(=O)N[C@@H](CC(N)=O)C(=O)O)OC2=O | 100
N=C(N)Nc1ccc2c(c1)CCCOc1c(ccc(CCC(=O)O)c1C(=O)N(CCN(CC(=O)O)CC(=O)O)CC(=O)O)OC2=O | 101
N=C(N)Nc1ccc2c(c1)CCCCc1c(cccc1C(=O)N(CC(=O)O)Cc1cccc(C(=O)O)c1)OC2=O | 100

----------
Target: Human recombinant enteropeptidase (Homo sapiens)
Construct: purchased ITSI-Biosciences LLC #REN-260
Test: Human enteropeptidase inhibitory activity (Test Example 1)
Type: biochemical
Settings: 3.3 μM test compound; inhibition rate from fluorescence intensity at 2 hours after the start of the reaction; read-out: 3.3 μM Inhibition
Counter-ions that a name gives are not always drawn.
property.measured: inhibition at 3.3 µM (%)

N=C(N)Nc1ccc2c(c1)CCCc1c(cccc1C(=O)N[C@@H](CC(=O)O)C(=O)O)OC2=O [Example 30, trifluoroacetate] | 101

[I] COc1ccc(C[C@H](NC(=O)c2c(CCC(=O)NC(CC(=O)O)CC(=O)O)ccc3c2OCCCc2cc(NC(=N)N)ccc2C(=O)O3)C(=O)O)cc1
[II] N=C(N)Nc1ccc2c(c1)CCc1nc(CCC(=O)N[C@@H](CC(=O)O)C(=O)O)ccc1OC2=O [Example 48, trifluoroacetate]
Query: Which value of inhibition at 3.3 µM is smaller, the one for I or the one for II ? Give the label of your selection.
Response: II
(II: 42%, I: 100%)

[A] N=C(N)Nc1ccc2c(c1)CCCOc1c(cccc1C(=O)N(Cc1ccccc1)[C@@H](CC(=O)O)C(=O)O)OC2=O
[B] N=C(N)Nc1ccc2c(c1)CCc1ccccc1OC2=O [Example 58, trifluoroacetate]
Query: Which value of inhibition at 3.3 µM is smaller, the one for A or the one for B ? Give the label of your selection.
Response: B
(B: 55%, A: 101%)

----------
Molecular target: Human recombinant enteropeptidase (Homo sapiens)
Construct: purchased ITSI-Biosciences LLC #REN-260
Experiment: Human enteropeptidase inhibitory activity (Test Example 1)
Assay type: biochemical
Conditions: 3.3 μM test compound; inhibition rate from fluorescence intensity at 2 hours after the start of the reaction; read-out: 3.3 μM Inhibition
property.measured: inhibition at 3.3 µM (%)

N=C(N)Nc1ccc2c(c1)CCCOc1ccc(CCC(=O)N[C@@H](CC(=O)O)C(=O)O)cc1OC2=O | 93
N=C(N)Nc1ccc2c(c1)CCc1cc(CCC(=O)N[C@@H](CC(=O)O)C(=O)O)ccc1OC2=O | 100
N=C(N)Nc1ccc2c(c1)CCCOc1c(cccc1C(=O)N(Cc1cccc(C(=O)O)c1)C(CC(=O)O)CC(=O)O)OC2=O | 99
N=C(N)Nc1ccc2c(c1)CCCOc1c(cccc1C(=O)N(CC(=O)O)[C@@H](Cc1ccc(OCCN(CC(=O)O)Cc3ccccc3)cc1)C(=O)O)OC2=O | 101
N=C(N)Nc1ccc2c(c1)OCCCCOc1cc(CCC(=O)NC(CC(=O)O)C(=O)O)ccc1OC2=O (stereo not shown) | 100
N=C(N)Nc1ccc2c(c1)CCCCc1c(CC(=O)N[C@@H](CC(=O)O)C(=O)O)cccc1OC2=O | 71
COc1cc2c(c(C(=O)N[C@@H](CC(=O)O)C(=O)O)c1)CCCCc1cc(NC(=N)N)ccc1C(=O)O2 | 100

Data provenance is patent US9975903B2.
